Experiment: Pharmacokinetics of Compound A, plasma concentrations after IV infusion
Assay type: in vivo, human
Details: both sexes, human, plasma, intravenous, ENA-001 low dose, N 12; read-out: AUCinf Geometric Mean
assay-readout: AUC(0-inf)
Answer with the value and then the unit.

Would you kindly share the measured AUC(0-inf) for `CCCNc1nc(NCCC)nc(N(C)OC)n1` ?
2660 ng·h/mL

* * *

Test: Pharmacokinetics of Compound A, plasma concentrations after IV infusion
Assay type: in vivo, human
Conditions: both sexes, human, plasma, intravenous, ENA-001 low dose, N 12; read-out: Cmax Geometric Mean
assay-readout: Cmax

Would you kindly share the measured Cmax for CCCNc1nc(NCCC)nc(N(C)OC)n1 [Compound A] ?
463 ng/mL

* * *

Assay: Pharmacokinetics of Compound A, plasma concentrations after IV infusion
Format: in vivo, human
Conditions: both sexes, human, plasma, intravenous, low dose; read-out: mean (±SD) AUCinf
assay-readout: AUC(0-inf)
Answer with the value and then the unit.

Would you kindly share the measured AUC(0-inf) for CCCNc1nc(NCCC)nc(N(C)OC)n1 [Compound A] ?
2670 ng·h/mL

* * *

Assay: Pharmacokinetics of Compound A, plasma concentrations after IV infusion
Type: in vivo, human
Settings: both sexes, human, plasma, intravenous, ENA-001 high dose, N 12; read-out: t1/2 Mean (converted)
assay-readout: half-life (h)
Answer with a number only, understood to be in h.

Would you kindly share the measured half-life for CCCNc1nc(NCCC)nc(N(C)OC)n1 [Compound A] ?
5.64

* * *

Assay: Pharmacokinetics of Compound A, plasma concentrations after IV infusion
Assay type: in vivo, human
Settings: both sexes, human, plasma, intravenous, ENA-001 low dose, N 12; read-out: CL Mean (converted)
assay-readout: clearance (mL/min)
Answer with a number only, understood to be in mL/min.

Would you kindly share the measured clearance for `CCCNc1nc(NCCC)nc(N(C)OC)n1` ?
929

* * *

Assay: clinical
Conditions: both, human, plasma, intravenous, propofol Mean AUClast, during infusion with Compound A low dose
assay-readout: AUC(0-t) (ng·h/mL)
Answer with a number only, understood to be in ng·h/mL.

Would you kindly share the measured AUC(0-t) for `CC(C)c1cccc(C(C)C)c1O` ?
5750

* * *

Assay: Pharmacokinetics of Compound A, plasma concentrations after IV infusion
Assay type: in vivo, human
Conditions: both sexes, human, plasma, intravenous, ENA-001 high dose, N 12; read-out: tmax Median
assay-readout: Tmax (h)
Answer with a number only, understood to be in h.

Would you kindly share the measured Tmax for CCCNc1nc(NCCC)nc(N(C)OC)n1 [Compound A] ?
4.36

* * *

Experiment: Pharmacokinetics of Compound A, plasma concentrations after IV infusion
Assay type: in vivo, human
Settings: both sexes, human, plasma, intravenous, ENA-001 high dose, N 12; read-out: CL Median (converted)
Description: Subjects underwent 3 separate treatment periods. […] PD will be unblinded for treatment but not subject. […] Participant Disposition Pharmacokinetic samples were measured up to 24 hours after the start of the IV infusion. […] Therefore, a fast decrease in concentration was observed, followed by a slow […].
assay-readout: clearance (mL/min)
Answer with a number only, understood to be in mL/min.

Would you kindly share the measured clearance for `CCCNc1nc(NCCC)nc(N(C)OC)n1` ?
772

* * *

Assay: Pharmacokinetics of Compound A, plasma concentrations after IV infusion
Format: in vivo, human
Conditions: both sexes, human, plasma, intravenous, ENA-001 high dose, N 12; read-out: AUCinf Geometric Mean
assay-readout: AUC(0-inf)

Would you kindly share the measured AUC(0-inf) for CCCNc1nc(NCCC)nc(N(C)OC)n1 [Compound A] ?
8440 ng·h/mL

// data source = patent US12138267B2
